Recorded values, source PubChem BioAssay (NCATS).

# System: HaCat
# experiment-notes: Cytotoxic Profiling of Annotated Libraries Using Quantitative High-Throughput Screening (AID 1296008); note: % is set by controls: 0 for no effect and ±100 for the full control effect; nearly all actives have a fitted effect of over 60% in size
# test-parameters: Five cell lines viability, CellTiter-Glo ATP luminescence, 48-72 h; hits give low values
Records with an inconclusive call do not appear.
assay-readout: max response (%)
Express it in %; write the number only.

The recorded max response for CC(C)[N+](C)(C)CC(O)COc1cccc2ccccc12 (configuration not stated) is -6.06

The recorded max response for CCCCC(CC)CN1CN(CC(CC)CCCC)CC(C)(N)C1 (configuration not stated) is -10.2

The recorded max response for O=C(O)C(Cc1cc(I)c(O)c(I)c1)c1ccccc1 (configuration not stated) is -3.38

* * *

# Tested on: UISO
# experiment-notes: qHTS assay to identify novel small-molecules to repurpose for Merkel cell carcinoma treatment (AID 1296009); note: nearly all actives have a fitted effect of over 60% in size
# test-parameters: MCC and control cell lines, CellTiter-Glo viability, 72 h; series mostly up to 46 µM
Records with an inconclusive call do not appear. Calls of active or inactive are those of the source. Calls come from the whole dose curve; as a rule, active = well fitted inhibition curve with a large enough effect; inconclusive = small, poorly fitted or top-dose-only effect; inactive = flat fitted curve, though single readings scatter.
I would appreciate it if you answered using one of these outcomes: YES = active, NO = inactive

How did this test come out for CN(C)CCN1C(=O)c2ccccc2N(C)c2ccccc21 ? NO

How did this test come out for C[C@H]1O[C@@H](O[C@H]2CC[C@@]3(C)[C@H](CC[C@@H]4[C@@H]3C[C@@H](O)[C@]3(C)[C@@H](C5=CC(=O)OC5)CC[C@]43O)C2)C[C@H](O)[C@@H]1O[C@H]1C[C@H](O)[C@H](O[C@H]2C[C@H](O)[C@H](O[C@@H]3O[C@H](CO)[C@@H](O)[C@H](O)[C@H]3O)[C@@H](C)O2)[C@@H](C)O1 ? YES

How did this test come out for NCCNC(=O)c1ccc(Cl)cn1 ? NO

* * *

# Test system: CP211
# experiment-notes: qHTS profiling for inhibitors of Plasmodium falciparum proliferation (AID 504749); note: nearly all actives have a fitted effect of over 60% in size
# test-parameters: P. falciparum in erythrocytes, SYBR Green DNA, 72 h; series mostly up to 28.7 µM
Results filed as inconclusive are left out. Calls of active or inactive are those of the source. Calls come from the whole dose curve; as a rule, active = well fitted inhibition curve with a large enough effect; inconclusive = small, poorly fitted or top-dose-only effect; inactive = flat fitted curve, though single readings scatter.
I would appreciate it if you answered using one of these outcomes: y for active, n for inactive

These solved cases illustrate the format of a correct answer.
How did this test come out for O=S(=O)(O)c1ccc(O)cc1 ? n

How did this test come out for CCCCN=C(N)N=C(N)N ? n

How did this test come out for Cc1ccc(-c2ncc(Cl)cc2-c2ccc(S(C)(=O)=O)cc2)cn1 ? n

New cases:
How did this test come out for CCOC(=O)[C@H](CCc1ccccc1)N[C@@H](C)C(=O)N1[C@H](C(=O)O)C[C@H]2CCCC[C@@H]21 ? n

How did this test come out for CCN1/C(=C/C=C/c2sc3ccccc3[n+]2CC)Sc2ccccc21 ? y

How did this test come out for Cc1ccc2c(Br)cc(Br)c(O)c2n1 ? y

How did this test come out for Cc1nc(-c2ccc(Cl)cc2)oc1COC(C)(C)C(=O)O ? n

How did this test come out for C[C@@H](O)[C@H]1C(=O)N2C(C(=O)O)=C(S[C@@H]3CN[C@H](CNS(N)(=O)=O)C3)[C@H](C)[C@H]12 ? n

How did this test come out for CC(=O)NO ? n

How did this test come out for CC(=O)Nc1ccc(CC(=O)O)cc1 ? n

* * *

# experiment-notes: qHTS of pediatric cancer cell lines to identify multiple opportunities for drug repurposing: Confirmatory screen for BT-12 cells (AID 1347112);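 note: viability read after 48 h of compound exposure; nearly all actives have a fitted effect of over 55% in size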
# test-parameters: BT-12 rhabdoid tumor cells, viability; series mostly up to 45.9 µM
Inconclusive results are not listed. The source made the active and inactive calls. The call rests on the fitted dose curve; in most records, active means well fitted cell-killing curve with a large enough effect; inconclusive means small, poorly fitted or top-dose-only effect; inactive means flat fitted curve, though single readings scatter.
I would appreciate it if you answered using one of these outcomes: active, inactive

These solved cases illustrate the format of a correct answer.
How did this test come out for O=[N+]([O-])c1ccc(/C=N\O)o1 ? inactive

How did this test come out for COc1ccc(C(=O)c2ccccc2)c(O)c1 ? inactive

How did this test come out for O=C(Oc1cccc2cccnc12)c1ccccc1 ? active

How did this test come out for CCN1/C(=C/C=C/c2sc3ccccc3[n+]2CC)Sc2ccccc21 ? active

New cases:
How did this test come out for C[C@@]12C(=O)OC(=O)[C@]1(C)C1CCC2O1 ? active

How did this test come out for CCCCCCCCCCC[C@@H](C[C@@H]1OC(=O)[C@H]1CCCCCC)OC(=O)[C@H](CC(C)C)NC=O ? inactive

* * *

# experiment-notes: Drug repurposing screens with cells derived from glioblastoma tumor samples (AID 1345199); note: % is set by controls: 0 for no effect and ±100 for the full control effect; nearly all actives have a fitted effect of over 40% in size
# test-parameters: GBM patient neurospheres viability, ATP luminescence, 48 h; at 45.9 µM (top of the series); tumour line D
Inconclusive results are not listed. Active and inactive are the calls of the source. The call rests on the fitted dose curve; in most records, active means well fitted inhibition curve with a large enough effect; inconclusive means small, poorly fitted or top-dose-only effect; inactive means flat fitted curve, though single readings scatter.
# activity, negative = cell killing per entry

The recorded activity, negative = cell killing for NC(=S)N/N=C/c1cccnc1 is 0.861% (inactive)

The recorded activity, negative = cell killing for CCCCOC(=O)CC(CC(=O)OCCCC)(OC(C)=O)C(=O)OCCCC is -7.23% (inactive)

The recorded activity, negative = cell killing for CC(=C(CCOC(=O)C(C)C)SSC(CCOC(=O)C(C)C)=C(C)N(C=O)Cc1cnc(C)nc1N)N(C=O)Cc1cnc(C)nc1N is 3.5% (inactive)

The recorded activity, negative = cell killing for CC(C)[N+](C)(C)CC(O)COc1cccc2ccccc12 (centres undefined) is -17.5% (inactive)

The recorded activity, negative = cell killing for Oc1ccccc1C=NCc1ccccc1 is -14.3% (inactive)

The recorded activity, negative = cell killing for CC(C)CCCC(C)N (centres undefined) is -4% (inactive)

The recorded activity, negative = cell killing for COc1cc(C(=O)N2CCCCCCC2)cc(OC)c1OC is -20.1% (inactive)

The recorded activity, negative = cell killing for Cc1cn([C@H]2C[C@H](F)[C@@H](CO)O2)c(=O)[nH]c1=O is -21.3% (inactive)

The recorded activity, negative = cell killing for CCCCCCCC/C=C\CCCCCCCCN is -1.47% (inactive)

The recorded activity, negative = cell killing for OCCOCCN1CCN(C2=Nc3ccccc3Sc3ccccc32)CC1 is -20.3% (inactive)

New cases:
The recorded activity, negative = cell killing for CCN(CC)CCOC(=O)C1(c2ccccc2)CCCC1 is -19.5% (inactive)

The recorded activity, negative = cell killing for COP(=O)(OC)OC(c1ccc(Cl)cc1)P(=O)(OC)OC (centres undefined) is -14.1% (inactive)

The recorded activity, negative = cell killing for OC[C@H]1O[C@@H](Oc2ccc(O)cc2)[C@H](O)[C@@H](O)[C@@H]1O is 7.3% (inactive)

The recorded activity, negative = cell killing for NC(=O)n1c(O)c(C(=O)c2cccs2)c2cc(Cl)ccc21 is -26.9% (inactive)

The recorded activity, negative = cell killing for O=C(O)P(=O)(O)O is -25% (inactive)

The recorded activity, negative = cell killing for Cc1cccc(C)c1NC(=O)CN1CCCCCC1 is -16.9% (inactive)

* * *

# System: Tov-21-G
# experiment-notes: Primary qHTS to identify gynecologic anti-cancer compounds using libraries of approved drugs and bioactive compounds (AID 1345084); note: % is set by controls: 0 for no effect and ±100 for the full control effect; nearly all actives have a fitted effect of over 55% in size
# test-parameters: Gynecologic cancer cell panel viability, ATPlite luminescence, 48 h; series mostly up to 57.5 µM
Records with an inconclusive call do not appear. Activity calls are given as the source filed them. Calls follow the shape of the dose curve; as a rule, active = well fitted cell-killing curve with a large enough effect; inconclusive = small, poorly fitted or top-dose-only effect, or effect the other way; inactive = flat fitted curve, though single readings scatter.
I would appreciate it if you answered using one of these outcomes: active, inactive

These solved cases illustrate the format of a correct answer.
How did this test come out for NC(=O)C1(N2CCCCC2)CCN(CCCC(=O)c2ccc(F)cc2)CC1 ? inactive

How did this test come out for C[C@@H](O)[C@H]1C(=O)N2C(C(=O)O)=C(S[C@@H]3CN[C@H](CNS(N)(=O)=O)C3)[C@H](C)[C@H]12 ? inactive

How did this test come out for CCCCCCCCCCCCCCCC(=O)O ? inactive

How did this test come out for FC1(F)C(F)(F)C(F)(F)C2(F)C(F)(F)C(F)(F)C(F)(F)C(F)(F)C2(F)C1(F)F (centres undefined) ? inactive

Switching to the query record.
How did this test come out for Oc1ccccc1C=NCc1ccccc1 ? inactive

* * *

# Test system: PC49
# experiment-notes: qHTS profiling for inhibitors of Plasmodium falciparum proliferation (AID 504749); note: nearly all actives have a fitted effect of over 60% in size
# test-parameters: P. falciparum in erythrocytes, SYBR Green DNA, 72 h; series mostly up to 28.7 µM
Inconclusive results are not listed. Activity calls are given as the source filed them. The call rests on the fitted dose curve; in most records, active means well fitted inhibition curve with a large enough effect; inconclusive means small, poorly fitted or top-dose-only effect; inactive means flat fitted curve, though single readings scatter.
I would appreciate it if you answered using one of these outcomes: 1 = active, -1 = inactive

These solved cases illustrate the format of a correct answer.
How did this test come out for Cc1c[nH]c2ccccc12 ? -1

How did this test come out for O=C(c1ccc(F)cc1)C1CCN(CCn2c(=S)[nH]c3ccccc3c2=O)CC1 ? 1

New cases:
How did this test come out for Cc1ccc(O)c([C@H](CCN(C(C)C)C(C)C)c2ccccc2)c1 ? 1

How did this test come out for NC(=O)C1(N2CCCCC2)CCN(CCCC(=O)c2ccc(F)cc2)CC1 ? -1

How did this test come out for C=CCN1CCc2nc(N)sc2CC1 ? -1

How did this test come out for CCC(CC)(CC(=O)Nc1cccc(/C=C/c2nc(C3CCC3)cs2)c1)C(=O)O ? -1

How did this test come out for Clc1cccc(C(c2ccc3nc[nH]c3c2)n2ccnc2)c1 (centres undefined) ? -1

How did this test come out for CNCCCCOc1ccccc1Cc1ccccc1 ? 1

How did this test come out for CC(=O)Oc1ccc(C)cc1 ? -1
